Biological target: Proteasome subunit beta (Trypanosoma cruzi)
Sequence (whole entry): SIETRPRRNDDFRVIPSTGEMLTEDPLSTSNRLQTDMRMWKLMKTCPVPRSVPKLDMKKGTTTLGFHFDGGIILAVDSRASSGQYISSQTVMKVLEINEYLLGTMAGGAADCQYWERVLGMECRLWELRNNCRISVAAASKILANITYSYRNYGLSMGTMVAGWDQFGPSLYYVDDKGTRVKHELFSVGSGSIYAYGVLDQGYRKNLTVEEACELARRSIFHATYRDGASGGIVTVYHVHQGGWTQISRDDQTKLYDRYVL
Experiment: Trypanosoma cruzi proteasome chymotrypsin-like activity (TcProtChymo) assay. Also: in the data most compounds retested in dose-response had high values.
Format: functional
Design: scale not given: direction of the effect not stated beside the values
Conditions: 9.37 µM
ATTRIBUTE MEASURED: Percent Effect (%)
One number for each entry, in %.

In the examples that follow, each entry is paired with its recorded Percent Effect.
Task item: State, in one line, measured Percent Effect of NC[C@H]1CC[C@H](C(NC(=O)c2cccc(F)c2)c2ccccn2)CC1 (some centres not stated)
Reply: 9.36

Task item: State, in one line, measured Percent Effect of `Cn1c(Cn2ccnc2)nnc1C1CCN(C(=O)C2(C)CC2)CC1`
Reply: 21

I'm hoping you can list Percent Effect for every molecule here, please.
1. CCCNC(=O)CN1CCN(Cc2csc(C(C)(C)C)n2)CC1
2. CCN(Cc1nc2c(cnn2C)c(=O)[nH]1)c1cccc(F)c1
3. CN(C)S(=O)(=O)N1CCC(Oc2ccccn2)CC1
4. O=C(NCc1cccs1)C1CN(C(=O)c2cccs2)CC12CCOCC2 (configuration not stated)
5. CCn1cnnc1C1CCN(C(=O)COc2ccccc2)CC1
6. CCN(CCNC(=O)c1ccccc1Br)C1CC1
7. O=C(CO[C@@H]1CC[C@H]2[C@H]1OCCN2CC1CCOCC1)N1CCCC1
8. CC(C)c1nc2n(n1)CC(NCc1ccncc1)CC2 (configuration not stated)

Reply:
[-7.62, 15.3, 14.1, 14.4, 5.74, 10.3, 11.1, 4.12]

I'm hoping you can list Percent Effect for every molecule here, please.
1. CC(Cc1ccco1)NC(=O)Nc1ccc(N2CCOCC2)nc1 (configuration not stated)
2. COc1cc(CNC(=O)NCCCF)cc(Br)c1OC

Reply:
1. 11.2
2. -0.174

###

biological target: Sialic acid-binding Ig-like lectin 9 (Homo sapiens) (UniProt Q9Y336); test: Hs-Siglec9 ALPHAscreen SOP 20170721; set-up: scale not given: direction of the effect not stated beside the values; settings: 10 µM
Sequence (Q9Y336 whole entry): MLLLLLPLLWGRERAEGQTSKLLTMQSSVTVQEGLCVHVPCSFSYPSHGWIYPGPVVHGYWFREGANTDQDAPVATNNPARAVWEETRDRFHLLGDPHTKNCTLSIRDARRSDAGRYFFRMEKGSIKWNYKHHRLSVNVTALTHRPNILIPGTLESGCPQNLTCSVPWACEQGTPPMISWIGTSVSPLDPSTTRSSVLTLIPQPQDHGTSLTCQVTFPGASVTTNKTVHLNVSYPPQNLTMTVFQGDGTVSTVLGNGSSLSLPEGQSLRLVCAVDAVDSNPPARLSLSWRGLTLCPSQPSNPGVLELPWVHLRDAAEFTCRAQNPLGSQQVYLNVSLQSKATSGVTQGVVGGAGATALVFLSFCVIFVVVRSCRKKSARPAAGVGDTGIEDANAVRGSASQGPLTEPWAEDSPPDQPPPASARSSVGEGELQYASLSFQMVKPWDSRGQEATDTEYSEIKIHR
Field: Percent Effect. Provide a value for each of the compounds that follow.
Answers are plain numbers, in %.

In the examples that follow, each entry is paired with its recorded Percent Effect.
Task item: State, in one line, measured Percent Effect of O=C1NCCCCC1Sc1nnc(-c2cccnc2)n1C1CC1 (stereo unspecified)
Reply: 0.732

Task item: State, in one line, measured Percent Effect of `CCc1nc(C)c([C@H]2CN(C)C[C@@H]2C(=O)Nc2ccc(OC)cc2)[nH]1`
Reply: 2.65

Task item: State, in one line, measured Percent Effect of `CC(=O)N1CCCN(C(=O)c2ccn(-c3cccc(Cl)c3)n2)CC1`
Reply: -4.72

Task item: State, in one line, measured Percent Effect of Cc1ccc(C(C)N(C)Cc2nc3c(cnn3C)c(=O)[nH]2)cc1 (stereo unspecified)
Reply: 6.25

Task item: State, in one line, measured Percent Effect of `O=C([C@H]1C[C@H]2OCC[C@H]2N(C(=O)C2CCOCC2)C1)N1CCCCO1`
Reply: 1.16

I'm hoping you can list Percent Effect for every compound here, please.
1. Cc1ncsc1C(=O)N1CCCC(c2noc(C(C)C)n2)C1 (stereo unspecified)
2. COc1ccc(C2(CNC(C)c3nnc(C)o3)CCCCC2)cc1 (stereo unspecified)
3. Cn1ncc2c1CCCC2NCc1cnc(-c2ccccc2)nc1 (stereo unspecified)
4. O=C(NCCCn1cncn1)NCC(c1ccccc1)N1CCCC1 (stereo unspecified)
5. c1cnc(-c2cnc(N3CCSCC3)nc2C2CCCO2)cn1 (stereo unspecified)
6. CC(C)OCCN1CCN(C(=O)c2cccc(CC#N)c2)CC1

Reply:
[26.1, 6.11, 24.2, -8.15, 3.27, -10.2]

###

target: Tyrosyl-tRNA synthetase, putative (Trypanosoma cruzi (strain CL Brener)) (UniProt Q4DSP6); experiment: Trypanosoma cruzi tyrosyl tRNA synthetase (TcYRS) SOP; assay type: functional; set-up: scale not given: direction of the effect not stated beside the values; details: 30 µM
Sequence (Q4DSP6 as listed by the source): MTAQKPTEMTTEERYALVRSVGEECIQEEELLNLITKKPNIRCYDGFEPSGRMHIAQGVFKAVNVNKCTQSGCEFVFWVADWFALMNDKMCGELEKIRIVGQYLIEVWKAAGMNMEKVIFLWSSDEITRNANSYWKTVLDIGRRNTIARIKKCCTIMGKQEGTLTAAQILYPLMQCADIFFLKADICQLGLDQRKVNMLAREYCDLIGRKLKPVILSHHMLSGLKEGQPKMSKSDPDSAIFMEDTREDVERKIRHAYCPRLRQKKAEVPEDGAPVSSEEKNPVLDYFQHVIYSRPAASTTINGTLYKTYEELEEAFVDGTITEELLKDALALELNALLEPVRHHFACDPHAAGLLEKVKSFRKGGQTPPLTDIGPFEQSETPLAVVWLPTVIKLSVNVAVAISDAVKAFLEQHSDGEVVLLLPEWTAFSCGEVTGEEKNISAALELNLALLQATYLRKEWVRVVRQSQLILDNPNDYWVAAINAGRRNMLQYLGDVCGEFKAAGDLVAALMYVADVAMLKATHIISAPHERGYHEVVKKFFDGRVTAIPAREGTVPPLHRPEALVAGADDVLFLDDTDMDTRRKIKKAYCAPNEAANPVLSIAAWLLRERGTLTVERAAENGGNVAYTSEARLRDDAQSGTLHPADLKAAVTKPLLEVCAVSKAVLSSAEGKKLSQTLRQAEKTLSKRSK
ATTRIBUTE MEASURED: Percent Effect (%)
One number for each entry, in %.

In the examples that follow, each entry is paired with its recorded Percent Effect.
Task item: State, in one line, measured Percent Effect of CNc1cncc(C2CCCN2Cc2ccccn2)n1 (configuration not stated)
Reply: 9.09

Task item: State, in one line, measured Percent Effect of `O=C(C1CCC1)N1CCN(C(=O)c2cnccn2)[C@H]2CS(=O)(=O)C[C@H]21`
Reply: 17.1

Task item: State, in one line, measured Percent Effect of `CCN(CCNC(=O)c1ccccc1Br)C1CC1`
Reply: -10.1

Task item: State, in one line, measured Percent Effect of `CNC(=O)c1cc2c(nc1N(C)C)CCN(S(=O)(=O)C1CC1)CC2`
Reply: -3.85

I'm hoping you can list Percent Effect for every molecule here, please.
1. O=C(NS(=O)(=O)c1ccc2c(c1)OCCO2)c1ccc(Br)cc1F
2. Fc1ccc(-c2cnc(CN3CCCC3Cn3cccn3)o2)cc1 (configuration not stated)
3. CN1N=C(C(=O)NCc2ccc3c(c2)CCCN3C)CCC1=O

Reply:
[-15.2, 13.9, 10.1]

I'm hoping you can list Percent Effect for every molecule here, please.
1. CCCNC(=O)Cn1cc(-c2ccccc2)cn1
2. CN(Cc1cccnc1)C1CC2(CCN(c3ccccn3)CC2)C1
3. O=c1[nH]c2c(c(=O)n1C1CCCCC1)CCC2Nc1ccccc1 (configuration not stated)
4. O=C(O)C1(Cc2cc(-c3ccc(F)cc3F)no2)CCOCC1
5. CN(Cc1cn2c(n1)CN(c1ncc(F)cn1)CC2)Cc1ccco1

Reply:
1. 7.59
2. 16.7
3. 0
4. -1.3
5. 21.8

###

molecular target: Sialic acid-binding Ig-like lectin 9 (Homo sapiens) (UniProt Q9Y336); assay: Hs-Siglec9 ALPHAscreen SOP 20170721; parameters: scale not given: direction of the effect not stated beside the values; conditions: 10 µM
ATTRIBUTE MEASURED: Percent Effect (%)
One number for each entry, in %.

In the examples that follow, each entry is paired with its recorded Percent Effect.
Task item: State, in one line, measured Percent Effect of Cc1ccc(-c2cc(C(=O)NC(C)C(=O)N3CCCCC3)on2)cc1 (stereo unspecified)
Reply: 1.96

Task item: State, in one line, measured Percent Effect of `Cn1cnnc1C1CCN(C(=O)CCCOc2ccccc2F)CC1`
Reply: 4.13

Task item: State, in one line, measured Percent Effect of Clc1cc(CN2CCCC2Cn2cncn2)c2ncccc2c1 (stereo unspecified)
Reply: -0.586

Task item: State, in one line, measured Percent Effect of `Cc1ccc(NC2CCN(C(=O)c3cccc(F)c3F)CC2)nn1`
Reply: 4.94

Task item: State, in one line, measured Percent Effect of `O=C(C1CCCC1)N1CCN(Cc2nc(-c3ccco3)no2)CC1`
Reply: 16

I'm hoping you can list Percent Effect for every compound here, please.
1. CNC(=O)[C@H]1CO[C@H]2CCN(Cc3ccc4ccccc4n3)C[C@H]2C1
2. O=C(c1ccc2c(c1)CCC2)N1C[C@@H](CN2CCOCC2)[C@@H](CO)C1
3. NCc1cnn(-c2ccccc2C(=O)NCCCn2ccnc2)c1
4. Cn1c(CN2CCOC(c3nc(C(C)(C)C)n[nH]3)C2)nnc1C1CC1 (stereo unspecified)
5. CCn1cc(NC(=O)NCC(O)COc2cccc(F)c2)cn1 (stereo unspecified)
6. O=C([C@@H]1CC[C@@H]2[C@@H](CCN2Cc2ccoc2)O1)N1CCCC1

Reply:
[-3.25, 21.3, -1.25, -20.2, 0.363, 27.1]

###

system: Trypanosoma cruzi; experiment: Trypanosoma cruzi phosphomannomutase and mannose-1-phosphate guanylyltransferase assay; type: functional; parameters: scale not given: direction of the effect not stated beside the values; settings: 10 µM
Field: Percent Effect. Provide a value for each of the compounds that follow.
Numbers only, in %.

In the examples that follow, each entry is paired with its recorded Percent Effect.
Task item: State, in one line, measured Percent Effect of `CN(C)C(=O)COC[C@]12COC[C@H]1CN(CC1CCC1)C2`
Reply: 4.79

Task item: State, in one line, measured Percent Effect of CCOc1ccc(Cl)cc1C1CCCN1 (stereo unspecified)
Reply: 3.21

Task item: State, in one line, measured Percent Effect of `COc1ccc([C@@H]2CN(C(=O)CCC(F)(F)F)C[C@H]2NC(C)=O)cc1`
Reply: -2.63

Task item: State, in one line, measured Percent Effect of `CCSc1cc(C(=O)NCCC(=O)Nc2ccccn2)ccn1`
Reply: 6.27

Task item: State, in one line, measured Percent Effect of COc1c(C2CCCN2Cc2csc(C(C)C)n2)c(C)nn1C (stereo unspecified)
Reply: -8.99

Task item: State, in one line, measured Percent Effect of `Cc1ccc(C(=O)NS(=O)(=O)c2ccccc2C)c(=O)[nH]1`
Reply: -5.85

Task item: State, in one line, measured Percent Effect of COCCN1C(=O)CC(N2CCN(c3ccc(OC)cc3)CC2)C1=O (stereo unspecified)
Reply: 4.37

Task item: State, in one line, measured Percent Effect of CC1CCN(C(CNC(=O)CCn2cccn2)c2cccs2)CC1 (stereo unspecified)
Reply: 2.82

Task item: State, in one line, measured Percent Effect of CC(NC(=O)Cn1cccn1)c1ccc2c(c1)OCCCO2 (stereo unspecified)
Reply: 6.55

Task item: State, in one line, measured Percent Effect of `CC(C)(C)NC(=O)NC(=O)CNC(C)(C)c1ccc2c(c1)OCCO2`
Reply: 0.472

---
Task item: State, in one line, measured Percent Effect of `COc1ccccc1OCC(=O)NS(=O)(=O)c1cc(F)ccc1F`
Reply: -5.99
